B1: PPFIA4 (parent)
chain: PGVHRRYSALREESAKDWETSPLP

# Variants of: B1
# PROCEDURE_TEXT: protein stability index of a GFP-peptide fusion (GPS, HEK-293T) (PSI 1-6); higher = more stable;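 note: lentivirally expressed fusions sorted by FACS into six bins by GFP to DsRed ratio, PSI derived from sequencing read proportions per bin multiplied by bin number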
# RECORDED_CONDITIONS: c terminus: a fixed tail appended
# protein stability index values compiled below
READOUT_LABEL: protein stability index

L10Y :: 4.02
T20A :: 4.05
E13S :: 3.96
